test: Pharmacokinetics in Male Cynomolgus Monkeys; type: in vivo; conditions: cynomolgus monkey, 5 mg/kg IV, plasma, mean
ENDPOINT_LABEL: C0 (ng/mL)
Express it in ng/mL; write the number only.

Prompt: Supply recorded C0 for CC(C)Oc1cc2nc([C@H]3CC[C@H](CN4CCC(c5ccc6c(c5)n(C)c(=O)n6C5CCC(=O)NC5=O)CC4)CC3)cn2cc1C(=O)Nc1cnn2cccnc12 (stereo partly shown) [Compound 48] here.
Completion: 5970

====

test: Pharmacokinetics (PK) in Male Beagle Dogs; format: in vivo; conditions: dog, 10 mg/kg PO, plasma, mean
ENDPOINT_LABEL: AUC(0-t) (ng·h/mL)
Express the result in ng·h/mL but write the number alone.

Prompt: Using known records, supply AUC(0-t) for CC(C)Oc1cc2nc([C@H]3CC[C@H](CN4CCC(c5ccc6c(c5)n(C)c(=O)n6C5CCC(=O)NC5=O)CC4)CC3)cn2cc1C(=O)Nc1cnn2cccnc12 (stereo partly shown)
Completion: 242

====

assay: Pharmacokinetics (PK) in Male Beagle Dogs; format: in vivo; details: dog, plasma, 10 mg/kg PO, mean
ENDPOINT_LABEL: bioavailability (%)
Respond with the bare value in %.

Prompt: Tell me measured bioavailability for CC(C)Oc1cc2nc([C@H]3CC[C@H](CN4CCC(c5ccc6c(c5)n(C)c(=O)n6C5CCC(=O)NC5=O)CC4)CC3)cn2cc1C(=O)Nc1cnn2cccnc12 (stereo partly shown) please.
Completion: 7.02

====

I'd appreciate it if you could supply DC50 values for the items below.
molecular target: IRAK4 (Homo sapiens); construct: 293Tcells expressing HiBiT-tagged IRAK4 were then added into 384-well plates; test: IRAK4 Degradation Assay, HiBiT Method; format: cell-based; conditions: 293T cells expressing HiBiT-tagged IRAK4, 6 hours

Prompt: Provide only the value of recorded DC50 for "CC(C)Oc1cc2nc([C@H]3CC[C@H](CN4CC[C@H](c5ccc6c(N7CCC(=O)NC7=O)nn(C)c6c5)[C@H](O)C4)CC3)cn2cc1C(=O)Nc1cccn(C2CC2)c1=O"
Completion: < 10 nM

Prompt: Identify the reported DC50 for the following entry. CC(C)Oc1cc2nc(C3CCN(C(=O)CN4CCC(n5ccc(NC6CCC(=O)NC6=O)n5)CC4)CC3)cn2cc1C(=O)Nc1cccc(C(F)F)n1 (centres unmarked)
Completion: 10 to 100 nM

Prompt: # return recorded DC50 for input CC(C)Oc1cc2nc(C3CCC(CN4CCC(c5ccc(NC6CCC(=O)NC6=O)cc5F)CC4)CC3)cn2cc1C(=O)Nc1cccc(C(F)(F)F)n1 (centres unmarked)
Completion: 100 to 500 nM

Prompt: Return value of DC50 for input CC(C)Oc1cc2nc([C@H]3CC[C@H](CN4CCC(c5ccc(C6CCC(=O)NC6=O)cc5F)CC4)CC3)cn2cc1C(=O)Nc1cccc(C(F)F)n1 (some centres unmarked) , no commentary.
Completion: 10 to 100 nM

Prompt: Please look at this molecule and report its DC50: CC(C)Oc1cc2nc(C3CCN(C(=O)CC4(O)CCN(c5ccc6c(C7CCC(=O)NC7=O)nn(C)c6c5)CC4)CC3)cn2cc1C(=O)Nc1cccc(C(F)F)n1 (centres unmarked)
Completion: 10 to 100 nM

Prompt: Give DC50 for CC(C)Oc1cc2nc([C@H]3CC[C@H](CN(C)C4CCN(c5ccc(NC6CCC(=O)NC6=O)cc5)CC4)CC3)cn2cc1C(=O)Nc1cccc(C(F)(F)F)n1 (some centres unmarked)
Completion: 100 to 500 nM

Prompt: For the molecule CC(C)Oc1cc2nc(C3CCN(CC(=O)N4CC5(C4)CN(c4ccc(C6CCC(=O)NC6=O)cc4)C5)CC3)cn2cc1C(=O)Nc1cccc(C(F)F)n1 (centres unmarked) , report DC50.
Completion: 10 to 100 nM

Prompt: Report DC50 for CC(C)Oc1cc2nc([C@H]3CC[C@H](CN4CCC(c5cccc(NC6CCC(=O)NC6=O)c5F)CC4)CC3)cn2cc1C(=O)Nc1cccc(C(F)F)n1 (some centres unmarked)
Completion: 10 to 100 nM

Prompt: Provide only the value of recorded DC50 for CC(C)Oc1nc2nc(C3CCN(C(=O)N(C)C4CCN(c5ncc(C6CCC(=O)NC6=O)cc5F)CC4)CC3)cn2cc1C(=O)Nc1cccn(C2CC2)c1=O (centres unmarked)
Completion: 10 to 100 nM

Prompt: Write down DC50 measured for item CC(C)Oc1cc2nn([C@H]3CC[C@H](CN4CCOC[C@H]4Cc4ccc(OC5CCC(=O)NC5=O)cc4)CC3)cc2cc1C(=O)Nc1cccn(C2CC2)c1=O (some centres unmarked)
Completion: 10 to 100 nM

Prompt: Specify reported DC50 for the molecule shown: CC(C)Oc1cc2nc([C@H]3CC[C@H](CN4CCC(c5ccc6c(c5)n(C)c(=O)n6C5CCC(=O)NC5=O)C(F)(F)C4)CC3)cn2cc1C(=O)Nc1cnn2cccnc12 (some centres unmarked)
Completion: < 10 nM

====

Exercise: state measured DC50 for each of the compounds provided.
Molecular target: IRAK4 (Homo sapiens)
Construct: 293Tcells expressing HiBiT-tagged IRAK4 were then added into 384-well plates
Sequence (Q9NWZ3 1-460): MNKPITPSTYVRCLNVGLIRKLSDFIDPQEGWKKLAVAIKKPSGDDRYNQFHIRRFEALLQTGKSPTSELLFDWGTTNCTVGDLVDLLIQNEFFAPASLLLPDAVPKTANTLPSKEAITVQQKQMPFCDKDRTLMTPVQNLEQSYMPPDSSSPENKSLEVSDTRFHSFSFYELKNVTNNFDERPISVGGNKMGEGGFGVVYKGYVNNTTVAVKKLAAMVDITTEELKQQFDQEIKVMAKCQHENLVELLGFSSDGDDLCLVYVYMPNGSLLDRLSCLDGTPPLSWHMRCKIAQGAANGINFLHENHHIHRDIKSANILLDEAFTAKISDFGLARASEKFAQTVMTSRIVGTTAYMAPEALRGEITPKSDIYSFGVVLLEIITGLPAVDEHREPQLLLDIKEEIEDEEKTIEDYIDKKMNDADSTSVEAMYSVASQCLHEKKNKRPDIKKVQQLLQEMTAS
Assay: IRAK4 Degradation Assay, HiBiT Method
Assay type: cell-based
Details: 293T cells expressing HiBiT-tagged IRAK4, 6 hours

Prompt: # return recorded DC50 for input CC(C)Oc1cc2nc(C3CCN(C(=O)CN4CCC(c5ccc6c(C7CCC(=O)NC7=O)nn(C)c6c5)C(F)(F)C4)CC3)cn2cc1C(=O)Nc1cccc(C(F)F)n1 (stereo not drawn) [Example 78]
Completion: 10 to 100 nM

Prompt: Tell me measured DC50 for CC(C)Oc1cc2nc(C3CCN(C(=O)CN4CCC(c5ccc(NC6CCC(=O)NC6=O)nc5)CC4)CC3)cn2cc1C(=O)Nc1cccc(C(F)F)n1 (stereo not drawn) [Example 86] please.
Completion: 10 to 100 nM

Prompt: Using known records, supply DC50 for CC(C)Oc1cc2nc([C@H]3CC[C@H](CN(C)C4CCN(Cc5ccc(NC6CCC(=O)NC6=O)cc5)CC4)CC3)cn2cc1C(=O)Nc1cccc(C(F)(F)F)n1 (stereo partly drawn) [Example 8]
Completion: > 1000 nM

====

target: IRAK4 (Homo sapiens); construct: 293Tcells expressing HiBiT-tagged IRAK4 were then added into 384-well plates; assay: IRAK4 Degradation Assay, HiBiT Method; type: cell-based; conditions: 293T cells expressing HiBiT-tagged IRAK4, 6 hours
What DC50 was measured for each of the following?

Prompt: For the molecule CC(C)Oc1cc2nn([C@H]3CC[C@H](CN4CCC(c5ccc6c(c5)n(C)c(=O)n6C5CCC(=O)NC5=O)C(F)(F)C4)CC3)cc2cc1C(=O)Nc1cccn([C@H]2C[C@H]2F)c1=O (some centres unmarked) , give its measured DC50 value.
Completion: < 10 nM

Prompt: State, in one line, measured DC50 of CC(C)Oc1cc2nc(C3CCN(C(=O)CC4CC5(C4)CN(c4ccc(C6CCC(=O)NC6=O)cn4)C5)CC3)cn2cc1C(=O)Nc1cccn([C@H]2C[C@H]2F)c1=O (some centres unmarked)
Completion: < 10 nM

Prompt: For the molecule CC(C)Oc1cc2nc([C@H]3CC[C@H](CN4CCC(c5ccc(C6(C)CCC(=O)NC6=O)cc5)CC4)CC3)cn2cc1C(=O)Nc1cccc(C(F)F)n1 (some centres unmarked) , give its reported DC50.
Completion: 100 to 500 nM

Prompt: Read the entry CC(C)Oc1cc2nn([C@H]3CC[C@H](CN4CC[C@@H](c5ccc6c(C7CCC(=O)NC7=O)nn(C)c6c5)[C@H](O)C4)CC3)cc2cc1C(=O)Nc1cccn([C@H]2C[C@H]2F)c1=O (some centres unmarked) and write its reported DC50.
Completion: < 10 nM

Prompt: State its DC50 for this molecule: CC(C)Oc1cc2nn([C@H]3CC[C@H](CN4CCN(c5ncc(C6CCC(=O)NC6=O)cc5F)CC(O)C4)CC3)cc2cc1C(=O)Nc1cccn([C@H]2C[C@H]2F)c1=O (some centres unmarked)
Completion: < 10 nM
